- assay.setup: buffer; pH 7.4; 200.0 µM
measure: solubility kinetic

# annotated cases, reported solubility kinetic shown
O=C(c1cc(COc2ccc(F)cc2F)on1)N1CCOCC1 ... > 0.0486 mg/mL
O=C(O)CCCNc1ccc(S(=O)(=O)N2CCCCC2)cc1 ... > 0.049 mg/mL
Cc1ccc(C(=O)O)cc1NC(=S)NCCc1ccccc1 ... > 0.0472 mg/mL

For the compound CC(NC(=O)COC(=O)Cc1ccc(Cl)cc1)c1ccccc1 (configuration not stated) , what solubility kinetic is on record?
> 0.0498 mg/mL

Same read-out for Cc1onc(-c2ccccc2Cl)c1C(=O)N1CCC(C)CC1 ?
> 0.0478 mg/mL

Same read-out for CCc1noc(C)c1C(=O)OCC(=O)NCc1ccccc1 ?
> 0.0453 mg/mL

Same read-out for CC1CCCC(NC(=O)CN2C(=O)NC(Cc3c[nH]c4ccccc34)C2=O)C1C (configuration not stated) ?
> 0.0595 mg/mL

Same read-out for Cc1cc(NC(=O)COc2ccc3ccccc3c2Br)no1 ?
0.0144 mg/mL

Same read-out for CC(C)=CC(=O)Nc1ccc(S(=O)(=O)Nc2onc(C)c2C)cc1 ?
> 0.0524 mg/mL

Same read-out for Cc1ccc(C(=O)CCC(=O)Nc2cccc(C)c2)cc1 ?
< 0.0006 mg/mL

Same read-out for O=C(CCC(=O)c1ccc(-c2ccccc2)cc1)Nc1cccnc1 ?
0.0007 mg/mL

###

- assay.setup: buffer; pH 7.4; 200.0 µM
measure: solubility kinetic

# annotated cases, reported solubility kinetic shown
Cc1cc(NC(=O)NC(C)(C(F)(F)F)C(F)(F)F)no1 ... > 45.8 µg/mL
COc1ccc(C(C)=NNc2ccc([N+](=O)[O-])cc2S(=O)(=O)Nc2ccccc2C(=O)O)c(OC)c1 ... > 77.2 µg/mL
CCN1CCCC1CNC(=O)C(=O)NC (stereo not given) ... > 32 µg/mL
CC(=O)NC(CC(=O)Nc1ccc(S(=O)(=O)N2CCOCC2)cc1)c1ccccc1 (stereo not given) ... > 64.7 µg/mL

For the compound COc1cccc(C(N)=O)c1OC(=O)Cc1ccccc1F , what solubility kinetic is on record?
> 45.5 µg/mL

###

- assay.setup: buffer; pH 7.4; 200.0 µM
measure: solubility kinetic

O=C(Cn1cc([N+](=O)[O-])ccc1=O)N1CCc2ccccc2C1 ... > 47 µg/mL

For the molecule Cc1ccc(NC(=O)c2cc3c(=O)oc4ccc(C)cc4c3s2)nc1 , what solubility kinetic is on record?
< 0.4 µg/mL

Same read-out for CCN(CC)CCNC(=O)Cn1ncc2ccccc2c1=O ?
> 45.4 µg/mL

Same read-out for O=C(CSc1ncccn1)Nc1cccc2ccccc12 ?
> 44.3 µg/mL

Same read-out for O=C(Nc1ccc(Oc2cccc(C(F)(F)F)c2)nc1)c1cccs1 ?
< 0.4 µg/mL

Same read-out for Cc1cc(C)nc(NC(=O)c2ccc(Br)s2)n1 ?
> 46.8 µg/mL

Same read-out for CC1CCC2(CC1)NC(=O)N(CC(=O)N1CCOCC1)C2=O (centres undefined) ?
> 46.4 µg/mL

Same read-out for COc1cccc2c(Nc3ccccc3C)cc(C)nc12.Cl ?
40.1 µg/mL

Same read-out for CCC1OC(c2ccc([N+](=O)[O-])cc2)=Nc2ccccc21 (centres undefined) ?
3.1 µg/mL

Same read-out for CCCCc1nc(C(N)=O)c2[nH]c(=O)n(-c3ccccc3F)c2n1 ?
3.7 µg/mL

Same read-out for O=C(O)CC[N+](=O)[O-] ?
> 17.9 µg/mL

Same read-out for COc1cccc(NC(=O)COC(=O)CCC2CCCC2)c1 ?
> 45.8 µg/mL

Same read-out for N#Cc1cc2ccccc2nc1N ?
> 25.4 µg/mL

Same read-out for N#CCc1cc2ccc3cccc4ccc(c1)c2c34 ?
< 0.5 µg/mL

###

- assay.setup: buffer; pH 7.4; 200.0 µM
Known solubility kinetic of a selection of compounds

# annotated cases, reported solubility kinetic shown
N#Cc1cn(-c2cccc(C(F)(F)F)c2)c(=O)[nH]c1=O ... > 42.2 µg/mL
CC12CC(O)C3c4ccc(O)cc4CCC3C1CC/C2=N\O (stereo unspecified) ... > 45.2 µg/mL
Cc1ccc(NC(=O)CNC(=O)c2ccco2)nc1 ... > 38.9 µg/mL
CCOC(=O)c1csc(NC(=O)CN2CCN(C)CC2)n1 ... > 46.9 µg/mL
CC1CCC(NC(=O)CN2C(=O)C3CC=CCC3C2=O)CC1 (stereo unspecified) ... > 45.7 µg/mL

For the compound O=C(NCc1ccccc1Cl)c1cc2ccccc2oc1=O , what solubility kinetic is on record?
< 0.7 µg/mL

Same read-out for CCc1ccccc1NC(=O)c1cc([N+](=O)[O-])ccc1N1CCOCC1 ?
> 53.3 µg/mL

Same read-out for COc1ccc(/C=C2\N=C(C)OC2=O)cc1OC(C)=O ?
> 41.3 µg/mL

Same read-out for C=CCSc1nc2ccccc2n2cnnc12 ?
> 36.3 µg/mL

Same read-out for N#Cc1ccccc1CN1C(=O)NC2(CCCCCC2)C1=O ?
> 44.6 µg/mL

###

- assay.setup: buffer; pH 7.4; 200.0 µM
measure: solubility kinetic

# annotated cases, reported solubility kinetic shown
Br.O=C(CN1CCCCC1)c1ccccc1F ... > 45.3 µg/mL
CC(CCc1ccccc1)NC(=O)CNC(=O)c1cccs1 (centres undefined) ... > 47.5 µg/mL
CCC(=O)N(Cc1cc(=O)[nH]c2ccccc12)c1ccc(C)cc1 ... > 48.1 µg/mL

For the next question, use this compound.
For the compound COc1cc(NC(=O)C(c2ccccc2)c2ccccc2)c(C(=O)O)cc1OC , what solubility kinetic is on record?
> 58.7 µg/mL

###

- assay.setup: buffer; pH 7.4; 200.0 µM
measure: solubility kinetic (mg/mL)
Give the value, in units of mg/mL, as a plain number.

# annotated cases, reported solubility kinetic shown
CC1CC(C)CN(C(=O)c2cccc(NC(=O)CC3SC(N4CCCCC4)=NC3=O)c2)C1 (centres undefined) ... 0.0671
N#Cc1ccc(S(=O)(=O)N2CCN(c3ncccn3)CC2)cc1 ... 0.0019
Cc1noc(C)c1-c1nc(CS(=O)(=O)c2ccc(F)cc2)no1 ... 0.0434
O=C(Nc1cc([N+](=O)[O-])ccc1N1CCCC1)c1cccs1 ... 0.0041
COc1ccc2ccccc2c1C1NC(=O)NC(C)=C1[N+](=O)[O-] (centres undefined) ... 0.0021

For the compound OC(CNCCNc1ncccc1C(F)(F)F)COc1ccc(F)cc1 (centres undefined) , what solubility kinetic is on record?
0.0509

Same read-out for CCN(CC)S(=O)(=O)c1cccc(-c2cn3cccnc3n2)c1 ?
0.0111

###

Known solubility kinetic of a selection of compounds
- assay.setup: buffer; pH 7.4; 200.0 µM

# annotated cases, reported solubility kinetic shown
COc1cc(CC(=O)NCCCc2ccccc2)cc(OC)c1OC ... > 51.5 µg/mL
S=C(c1ccc(-c2ccc(Br)cc2)o1)N1CCCCC1 ... < 0.8 µg/mL
Cc1nc(/C(N)=N/OC(=O)c2cccc(Cl)c2)c(C(F)(F)F)o1 ... > 52.2 µg/mL

For the compound COCc1cc(C)nc(Oc2ccccc2)c1C#N , what solubility kinetic is on record?
> 38.1 µg/mL

Same read-out for O=C(COC(=O)CN1CCSC1=O)Nc1ccc(F)cc1Cl ?
> 52 µg/mL

Same read-out for O=C(CCC(=O)c1ccccc1)NCc1ccccc1 ?
> 40.1 µg/mL

Same read-out for CCOC(=O)c1ccc(Nc2cc(C)nc(-c3ccccc3)n2)cc1 ?
< 0.2 µg/mL

Same read-out for N#C/C(=C\c1cccc(O)c1)C(=O)N1CCCCC1 ?
> 38.4 µg/mL

###

- assay.setup: buffer; pH 7.4; 200.0 µM
measure: solubility kinetic (µg/mL)
Give the value, in units of µg/mL, as a plain number.

Cn1c(-c2ccccc2)cc2ccccc21 ... 0.6

For the compound CSc1ncccc1C(=O)NCCc1ccccc1 , what solubility kinetic is on record?
37.2

Same read-out for COc1ccc(CNC(=O)COc2cc(O)c3c(c2)OC(C)(C)CC3=O)cc1 ?
43.5

Same read-out for O=C(CCCc1ccccc1)NCc1ccccn1 ?
29.2

###

- assay.setup: buffer; pH 7.4; 200.0 µM
Known solubility kinetic of a selection of compounds

COc1cccc(NC(=O)Nc2cccnc2)c1 ... > 36.5 µg/mL
CCOP(=O)(OCC)C(NC(=O)CC(C)C)C(Cl)(Cl)Cl (stereo not drawn) ... > 55.3 µg/mL

For the compound COc1cccc(Nc2ccc(-n3ccnc3)nn2)c1 , what solubility kinetic is on record?
> 40.1 µg/mL

###

- assay.setup: buffer; pH 7.4; 200.0 µM
measure: solubility kinetic

# annotated cases, reported solubility kinetic shown
Cc1ccc(NC(=O)CNC(=O)c2cccc(C)c2)nc1 ... > 42.5 µg/mL
Cc1ccccc1C(=O)NC1CCSC1=O (stereo not drawn) ... > 35.3 µg/mL
COc1ccc(C(=O)NCC(=O)OCC(=O)NC2CCCCCC2)cc1OC ... > 58.9 µg/mL
O=C(Nc1cccnc1)C1CC(=O)N(c2ccc(F)cc2)C1 (stereo not drawn) ... > 44.9 µg/mL
Cc1ccccc1C(=O)NC(=S)N(CCO)Cc1ccccc1 ... > 49.3 µg/mL
O=C(N/N=C/c1ccccc1O)c1ccncc1 ... > 36.2 µg/mL

For the next question, use this molecule.
For the molecule COCCNC(=O)c1cccc2c1-c1ccccc1C2=O , what solubility kinetic is on record?
> 42.2 µg/mL

Just for reference, PubChem BioAssay AID1996 is where these values come from.
